FYI, the data here is from patent US12378211B2.

Listed here: items and their measured MIC.
test system: Mutant-5 of Enterococcus fecalis NR 31975; experiment: microbe, parasite or virus in culture; type: cell-based; conditions: Enterococcus
endpoint: MIC (µg/mL)

- CCc1ccc(C(=O)Nc2nnc(S(N)(=O)=O)s2)cc1 [CAI0017]: 8
- CCCC(=O)Nc1nnc(S(N)(=O)=O)s1 [CAI0013]: 16
- CC(C)(C)C(=O)Nc1nnc(S(N)(=O)=O)s1 [CAI0010]: 4
- CC(=O)NC[C@H]1CN(c2ccc(N3CCOCC3)c(F)c2)C(=O)O1 [Linezolid, reference compound]: 4
- CC(=O)Nc1nnc(S(N)(=O)=O)s1 [Acetazolamide, reference compound]: 32

###

test system: Enterococcus faecium E417-HM-965; assay: MIC, broth microdilution in TSB; assay type: cell-based; settings: Enterococcus faecium, E417HM965; TSB; Table 1; read-out: MIC
Listed here: items and their measured MIC.
endpoint: MIC (µg/mL)

• CC(C)C(=O)Nc1nnc(S(N)(=O)=O)s1 [CAI0011] = 1
• CC(=O)Nc1nnc(S(N)(=O)=O)s1 [Acetazolamide, reference compound] = 2
• NS(=O)(=O)c1nnc(NC(=O)c2ccccc2)s1 [CAI0012] = 2
• CCCC(=O)Nc1nnc(S(N)(=O)=O)s1 [CAI0013] = 0.5
• CCC(=O)Nc1nnc(S(N)(=O)=O)s1 [CAI0009] = 1
• CCc1ccc(C(=O)Nc2nnc(S(N)(=O)=O)s2)cc1 [CAI0017] = 0.25
• CC(C)(C)C(=O)Nc1nnc(S(N)(=O)=O)s1 [CAI0010] = 0.5

###

system: Enterococcus faecalis—S613 HM-334; assay: MIC, broth microdilution in TSB; format: cell-based; conditions: Enterococcus; TSB; Table 7; read-out: MIC in TSB
Listed here: items and their measured MIC.
endpoint: MIC

* NS(=O)(=O)c1nnc(NC(=O)c2ccccc2)s1 [CAI0012] | 4 µg/mL
* CCc1ccc(C(=O)Nc2nnc(S(N)(=O)=O)s2)cc1 [CAI0017] | 1 µg/mL
* CC(=O)Nc1nnc(S(C)(=O)=O)s1 [CAI0025] | > 128 µg/mL
* NS(=O)(=O)c1nnc(NC(=O)CC2CCCCC2)s1 [CAI0029] | 0.015 µg/mL
* CC(C)CC(=O)Nc1nnc(S(N)(=O)=O)s1 [CAI0026] | 0.25 µg/mL
* CCC(=O)Nc1nnc(S(N)(=O)=O)s1 [CAI0009] | 2 µg/mL
* CC(C)(C)C(=O)Nc1nnc(S(N)(=O)=O)s1 [CAI0010] | 0.125 µg/mL

###

test system: Mutant-12 of Enterococcus fecalis NR 31975; assay: microbe, parasite or virus in culture; assay type: cell-based; settings: Enterococcus
endpoint: MIC (µg/mL)

* CCCC(=O)Nc1nnc(S(N)(=O)=O)s1 [CAI0013] | 8
* CCc1ccc(C(=O)Nc2nnc(S(N)(=O)=O)s2)cc1 [CAI0017] | 16
* CC(=O)NC[C@H]1CN(c2ccc(N3CCOCC3)c(F)c2)C(=O)O1 [Linezolid, reference compound] | 4
* CC(=O)Nc1nnc(S(N)(=O)=O)s1 [Acetazolamide, reference compound] | 32
* CC(C)(C)C(=O)Nc1nnc(S(N)(=O)=O)s1 [CAI0010] | 8
